Experiment: accelerated stability test (sealed vial, 30° C., HPLC content and related substances)
Type: physicochemical
Conditions: month 3
Would you kindly list Assay (%) for each of these molecules?
Give bare numbers, in %.

CC[C@H]1OC(=O)[C@H](C)[C@@H](O[C@H]2C[C@@](C)(OC)[C@@H](O)[C@H](C)O2)[C@H](C)[C@@H](O[C@@H]2O[C@H](C)C[C@H](N(C)C)[C@H]2O)[C@](C)(O)C[C@@H](C)C(=O)[C@H](C)[C@@H](O)[C@]1(C)O.O.O.O.O.O.O.O=C(O)[C@H](O)[C@@H](O)[C@H](O[C@@H]1O[C@H](CO)[C@H](O)[C@H](O)[C@H]1O)[C@H](O)CO [erythromycin lactobionate hexahydrate] = 99.8
CC[C@H]1OC(=O)[C@H](C)[C@@H](O[C@H]2C[C@@](C)(OC)[C@@H](O)[C@H](C)O2)[C@H](C)[C@@H](O[C@@H]2O[C@H](C)C[C@H](N(C)C)[C@H]2O)[C@](C)(O)C[C@@H](C)C(=O)[C@H](C)[C@@H](O)[C@]1(C)O.O.O.O.O.O.O=C(O)[C@H](O)[C@@H](O)[C@H](O[C@@H]1O[C@H](CO)[C@H](O)[C@H](O)[C@H]1O)[C@H](O)CO [erythromycin lactobionate pentahydrate] = 100.1
CC[C@H]1OC(=O)[C@H](C)[C@@H](O[C@H]2C[C@@](C)(OC)[C@@H](O)[C@H](C)O2)[C@H](C)[C@@H](O[C@@H]2O[C@H](C)C[C@H](N(C)C)[C@H]2O)[C@](C)(O)C[C@@H](C)C(=O)[C@H](C)[C@@H](O)[C@]1(C)O.N#CS.O.O.O [erythromycin thiocyanate trihydrate] = 100.3

(Q) Return value of Assay (%) for input CC[C@H]1OC(=O)[C@H](C)[C@@H](O[C@H]2C[C@@](C)(OC)[C@@H](O)[C@H](C)O2)[C@H](C)[C@@H](O[C@@H]2O[C@H](C)C[C@H](N(C)C)[C@H]2O)[C@](C)(O)C[C@@H](C)C(=O)[C@H](C)[C@@H](O)[C@]1(C)O.N#CS.O.O [erythromycin thiocyanate dihydrate] , no commentary.
(A) 100.2

====

Test: accelerated stability test (sealed vial, 30° C., HPLC content and related substances)
Type: physicochemical
Conditions: month 0
result type: Form

CC[C@H]1OC(=O)[C@H](C)[C@@H](O[C@H]2C[C@@](C)(OC)[C@@H](O)[C@H](C)O2)[C@H](C)[C@@H](O[C@@H]2O[C@H](C)C[C@H](N(C)C)[C@H]2O)[C@](C)(O)C[C@@H](C)C(=O)[C@H](C)[C@@H](O)[C@]1(C)O.O.O.O.O.O.O.O=C(O)[C@H](O)[C@@H](O)[C@H](O[C@@H]1O[C@H](CO)[C@H](O)[C@H](O)[C@H]1O)[C@H](O)CO [erythromycin lactobionate hexahydrate] = off-white powder
CC[C@H]1OC(=O)[C@H](C)[C@@H](O[C@H]2C[C@@](C)(OC)[C@@H](O)[C@H](C)O2)[C@H](C)[C@@H](O[C@@H]2O[C@H](C)C[C@H](N(C)C)[C@H]2O)[C@](C)(O)C[C@@H](C)C(=O)[C@H](C)[C@@H](O)[C@]1(C)O.O.O.O.O.O.O=C(O)[C@H](O)[C@@H](O)[C@H](O[C@@H]1O[C@H](CO)[C@H](O)[C@H](O)[C@H]1O)[C@H](O)CO [erythromycin lactobionate pentahydrate] = off-white powder
CC[C@H]1OC(=O)[C@H](C)[C@@H](O[C@H]2C[C@@](C)(OC)[C@@H](O)[C@H](C)O2)[C@H](C)[C@@H](O[C@@H]2O[C@H](C)C[C@H](N(C)C)[C@H]2O)[C@](C)(O)C[C@@H](C)C(=O)[C@H](C)[C@@H](O)[C@]1(C)O.N#CS.O.O [erythromycin thiocyanate dihydrate] = off-white powder
CC[C@H]1OC(=O)[C@H](C)[C@@H](O[C@H]2C[C@@](C)(OC)[C@@H](O)[C@H](C)O2)[C@H](C)[C@@H](O[C@@H]2O[C@H](C)C[C@H](N(C)C)[C@H]2O)[C@](C)(O)C[C@@H](C)C(=O)[C@H](C)[C@@H](O)[C@]1(C)O.N#CS.O.O.O [erythromycin thiocyanate trihydrate] = off-white powder

Now take the following compound into account.
(Q) Specify measured Form for CC[C@H]1OC(=O)[C@H](C)[C@@H](O[C@H]2C[C@@](C)(OC)[C@@H](O)[C@H](C)O2)[C@H](C)[C@@H](O[C@@H]2O[C@H](C)C[C@H](N(C)C)[C@H]2O)[C@](C)(O)C[C@@H](C)C(=O)[C@H](C)[C@@H](O)[C@]1(C)O [erythromycin lactobionate trihydrate] .
(A) off-white powder

====

Assay: accelerated stability test (sealed vial, 30° C., HPLC content and related substances)
Type: physicochemical
Details: month 6
result type: Assay (%)
Answers are plain numbers, in %.

Answered cases to consult:
CC[C@H]1OC(=O)[C@H](C)[C@@H](O[C@H]2C[C@@](C)(OC)[C@@H](O)[C@H](C)O2)[C@H](C)[C@@H](O[C@@H]2O[C@H](C)C[C@H](N(C)C)[C@H]2O)[C@](C)(O)C[C@@H](C)C(=O)[C@H](C)[C@@H](O)[C@]1(C)O.N#CS.O.O.O [erythromycin thiocyanate trihydrate] = 100.1
CC[C@H]1OC(=O)[C@H](C)[C@@H](O[C@H]2C[C@@](C)(OC)[C@@H](O)[C@H](C)O2)[C@H](C)[C@@H](O[C@@H]2O[C@H](C)C[C@H](N(C)C)[C@H]2O)[C@](C)(O)C[C@@H](C)C(=O)[C@H](C)[C@@H](O)[C@]1(C)O [erythromycin lactobionate trihydrate] = 99.9
CC[C@H]1OC(=O)[C@H](C)[C@@H](O[C@H]2C[C@@](C)(OC)[C@@H](O)[C@H](C)O2)[C@H](C)[C@@H](O[C@@H]2O[C@H](C)C[C@H](N(C)C)[C@H]2O)[C@](C)(O)C[C@@H](C)C(=O)[C@H](C)[C@@H](O)[C@]1(C)O.N#CS.O.O [erythromycin thiocyanate dihydrate] = 99.8
CC[C@H]1OC(=O)[C@H](C)[C@@H](O[C@H]2C[C@@](C)(OC)[C@@H](O)[C@H](C)O2)[C@H](C)[C@@H](O[C@@H]2O[C@H](C)C[C@H](N(C)C)[C@H]2O)[C@](C)(O)C[C@@H](C)C(=O)[C@H](C)[C@@H](O)[C@]1(C)O.O.O.O.O.O.O.O=C(O)[C@H](O)[C@@H](O)[C@H](O[C@@H]1O[C@H](CO)[C@H](O)[C@H](O)[C@H]1O)[C@H](O)CO [erythromycin lactobionate hexahydrate] = 99.6

(Q) // fetch Assay (%) given entry CC[C@H]1OC(=O)[C@H](C)[C@@H](O[C@H]2C[C@@](C)(OC)[C@@H](O)[C@H](C)O2)[C@H](C)[C@@H](O[C@@H]2O[C@H](C)C[C@H](N(C)C)[C@H]2O)[C@](C)(O)C[C@@H](C)C(=O)[C@H](C)[C@@H](O)[C@]1(C)O.O.O.O.O.O.O=C(O)[C@H](O)[C@@H](O)[C@H](O[C@@H]1O[C@H](CO)[C@H](O)[C@H](O)[C@H]1O)[C@H](O)CO [erythromycin lactobionate pentahydrate]
(A) 99.9

Taken from patent US8470787B2.
